Taken from ChEMBL document CHEMBL4765451.

experiment_summary: AUC (0 to infinity) in Sprague-Dawley rat at 20 mg/kg, ip
Format: ADME, organism-based
Parameters: time infinity, route intraperitoneal, dose 20 mg/kg
conditions: in vivo
endpoint_name: AUC(0-inf) (ng·h/mL)
# output: bare number, implied unit ng·h/mL

Using the record for COc1ccccc1N1CCN(CCCCn2cc(CCCC(=O)O)c3ccccc32)CC1 , state its measured AUC(0-inf).
26.9

###

Could you please report measured pIC50 for the items listed next?
target_system: UniProt P35348
Sequence (P35348 whole entry): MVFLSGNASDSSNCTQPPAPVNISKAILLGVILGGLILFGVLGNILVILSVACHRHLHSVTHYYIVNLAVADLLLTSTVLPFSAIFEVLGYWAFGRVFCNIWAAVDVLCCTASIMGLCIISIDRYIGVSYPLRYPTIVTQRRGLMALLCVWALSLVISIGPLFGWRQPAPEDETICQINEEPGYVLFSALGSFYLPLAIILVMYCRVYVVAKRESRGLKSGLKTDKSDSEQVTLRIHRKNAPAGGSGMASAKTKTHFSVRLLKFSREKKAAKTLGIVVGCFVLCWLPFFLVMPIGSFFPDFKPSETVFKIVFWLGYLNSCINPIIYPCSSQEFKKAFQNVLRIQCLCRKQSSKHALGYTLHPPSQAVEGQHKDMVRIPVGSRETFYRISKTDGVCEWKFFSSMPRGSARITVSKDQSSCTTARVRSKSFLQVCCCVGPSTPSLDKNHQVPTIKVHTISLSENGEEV
experiment_summary: Antagonist activity at human alpha1A receptor transfected in HEK293 cells co-transfected with Galpha16 assessed as reduction in intracellular calcium release incubated for 40 mins by Fluo-4AM dye based fluorescence assay
pIC50: −log10 of the molar value.

Look up and report measured pIC50 (UniProt P35348) for the following compound: COc1ccccc1N1CCN(CCCCCn2cc(CCCC(=O)O)c3ccccc32)CC1
< 6.00

Look up and report measured pIC50 (UniProt P35348) for the following compound: O=C(O)CCCc1cn(CCCCN2CCN(c3ccccc3Cl)CC2)c2ccccc12
< 6.00

Look up and report measured pIC50 (UniProt P35348) for the following compound: COc1ccccc1N1CCN(CCCn2cc(CCCC(=O)O)c3ccccc32)CC1
< 6.00

###

experiment_summary: Inhibition of 5-alpha reductase in rat liver microsomes assessed as inhibition of DHT formation using testosterone as substrate incubated for 10 mins by NADPH assay
pIC50: −log10 of the molar value.
endpoint_name: pIC50

Using the record for COc1ccccc1N1CCN(CCCCCn2cc(CCCC(=O)O)c3ccccc32)CC1 , state its measured pIC50.
< 5.30

Using the record for O=C(O)CCCc1cn(CCCCN2CCN(c3ccccc3Cl)CC2)c2ccccc12 , state its measured pIC50.
< 5.30

Using the record for COc1ccccc1N1CCN(CCCn2cc(CCCC(=O)O)c3ccccc32)CC1 , state its measured pIC50.
< 5.30
